# System: SK-MEL-5 melanoma
# assay-text: NCI tumour cell line growth inhibition, 48 h
observation-type: GI50

Ask: Field request: GI50 | item: COc1ccc2c(c1)c(-c1cc(N)n3nc(-c4cn(C)c5ccc(OC)cc45)cc3n1)cn2C
Result: 1790 nM

Ask: Field request: GI50 | item: CN1CCN(Cc2ccc(NC(=O)c3cncc(C#Cc4cnc5[nH]ncc5c4)c3)cc2C(F)(F)F)CC1
Result: 2710 nM

Ask: Field request: GI50 | item: CCCCCc1ccc(S(=O)(=O)Nc2cc(-c3csc(NC(=O)CN4CCN(CCO)CC4)n3)ccc2OC)cc1
Result: 1770 nM

Ask: Field request: GI50 | item: O=C(CCCCCCNC(=O)C(O)(O)C(F)(F)F)Nc1ncc(-c2ccccc2)s1
Result: 3460 nM

----------
# System: EKVX NSCLC
# assay-text: NCI tumour cell line growth inhibition, 48 h
// reported TGI per item
Field: numeric (µM). Do not append units.

Reference set (2 entries):
chemical-string: CN1CCN(Cc2ccc(NC(=O)c3cncc(C#Cc4cnc5[nH]ncc5c4)c3)cc2C(F)(F)F)CC1
unit-of-measure: µM
TGI: 18
--
chemical-string: COc1ccc2c(c1)c(-c1cc(N)n3nc(-c4cn(C)c5ccc(OC)cc45)cc3n1)cn2C
unit-of-measure: µM
TGI: 3.67

Ask: Field request: TGI | item: O=C1C(c2ccccc2)=C(N2CCc3ccccc32)OC1(Cl)Cl
Result: 8.94

----------
# Test system: OVCAR-5 ovarian
# assay-text: NCI tumour cell line growth inhibition, 48 h
observation-type: GI50

Reference set (3 entries):
chemical-string: COc1ccc2c(c1)c(-c1cc(N)n3nc(-c4cn(C)c5ccc(OC)cc45)cc3n1)cn2C
GI50: 1840 nM
//
chemical-string: CCCCCc1ccc(S(=O)(=O)Nc2cc(-c3csc(NC(=O)CN4CCN(CCO)CC4)n3)ccc2OC)cc1
GI50: 2190 nM
//
chemical-string: COC[C@]12CC[C@@H](C)[C@H](C)[C@H]1C1=CC[C@@H]3[C@@]4(C)CCCNC(C)(C)[C@@H]4CC[C@@]3(C)[C@]1(C)CC2
GI50: 1810 nM

Now let's try a different one.
Ask: Field request: GI50 | item: CN1CCN(Cc2ccc(NC(=O)c3cncc(C#Cc4cnc5[nH]ncc5c4)c3)cc2C(F)(F)F)CC1
Result: 3240 nM

----------
// reported TGI per item
# Test system: UACC-62 melanoma
# assay-text: NCI tumour cell line growth inhibition, 48 h
The answer consists of two parts: a number and, after it, its unit.

Ask: Field request: TGI | item: COC[C@]12CC[C@@H](C)[C@H](C)[C@H]1C1=CC[C@@H]3[C@@]4(C)CCCNC(C)(C)[C@@H]4CC[C@@]3(C)[C@]1(C)CC2
Result: 3.19 µM

Ask: Field request: TGI | item: O=C(CCCCCCNC(=O)C(O)(O)C(F)(F)F)Nc1ncc(-c2ccccc2)s1
Result: 5.61 µM

Ask: Field request: TGI | item: CN1CCN(Cc2ccc(NC(=O)c3cncc(C#Cc4cnc5[nH]ncc5c4)c3)cc2C(F)(F)F)CC1
Result: 5.56 µM

Ask: Field request: TGI | item: COc1ccc2c(c1)c(-c1cc(N)n3nc(-c4cn(C)c5ccc(OC)cc45)cc3n1)cn2C
Result: 3.87 µM

----------
# Test system: MCF7 breast
# assay-text: NCI tumour cell line growth inhibition, 48 h
observation-type: GI50

chemical-string: COc1ccc2c(c1)c(-c1cc(N)n3nc(-c4cn(C)c5ccc(OC)cc45)cc3n1)cn2C
GI50: 1250 nM
--
chemical-string: CN1CCN(Cc2ccc(NC(=O)c3cncc(C#Cc4cnc5[nH]ncc5c4)c3)cc2C(F)(F)F)CC1
GI50: 3900 nM
--
chemical-string: O=C(CCCCCCNC(=O)C(O)(O)C(F)(F)F)Nc1ncc(-c2ccccc2)s1
GI50: 7190 nM

Now let's try a different one.
Ask: Field request: GI50 | item: COC[C@]12CC[C@@H](C)[C@H](C)[C@H]1C1=CC[C@@H]3[C@@]4(C)CCCNC(C)(C)[C@@H]4CC[C@@]3(C)[C@]1(C)CC2
Result: 1540 nM
